- Test system: Liver
- procedure.text: Toxicity against Sprague-Dawley rat liver assessed as respiratory control ratio incubated for 1 hr followed by compound washout measured after 10 mins
- Assay type: tissue-based
Each entry gets Not fulfilled if its Ratio stays under 5, and Fulfilled if its Ratio is 5 or above.

CC(C)(C)/[N+]([O-])=C/c1ccc(OCCCC[P+](c2ccccc2)(c2ccccc2)c2ccccc2)cc1.[Br-] | Not fulfilled
CCCNC(C)(C)P(=O)(OCC)OCC | Fulfilled
CC(C)(C)/[N+]([O-])=C/c1ccccc1 | Fulfilled
CCOP(=O)(OCC)C(C)(C)NCCCCCC[P+](c1ccccc1)(c1ccccc1)c1ccccc1.[Br-] | Fulfilled
CCOP(=O)(OCC)C(C)(C)NCCCCCCCC[P+](c1ccccc1)(c1ccccc1)c1ccccc1.[Br-] | Fulfilled

====

- procedure.text: Toxicity against Chlamydomonas reinhardtii D66 assessed as loss of respiratory activity after 1 hr
- stated.conditions: Chlamydomonas reinhardtii D66 cells, read-out: LD50
measure.name: LC50 at 1 h

CCOP(=O)(OCC)C(C)(C)NCCCCCCCCCCCC[P+](c1ccccc1)(c1ccccc1)c1ccccc1.[Br-] | < 25 µM
CCOP(=O)(OCC)C1(C)CCCN1 (stereo not drawn) | > 1000 µM
CCOP(=O)(OCC)C(NCCCCCCCCCCCC[P+](c1ccccc1)(c1ccccc1)c1ccccc1)C(C)C.[Br-] (racemic) | < 10 µM

====

- procedure.text: Toxicity against Chlamydomonas reinhardtii D66 assessed as loss of photosynthetic activity after 1 hr
- stated.conditions: Chlamydomonas reinhardtii D66 cells, read-out: LD50
# LC50 at 1 h listing for each entry below
measure.name: LC50 at 1 h (µM)

CC(C)(C)/[N+]([O-])=C/c1ccc(OCCCC[P+](c2ccccc2)(c2ccccc2)c2ccccc2)cc1.[Br-] | 100
CCOP(=O)(OCC)C(NCCCC[P+](c1ccccc1)(c1ccccc1)c1ccccc1)C(C)C.[Br-] (racemic) | 250

====

Listed here: items and their measured LD10.
- Test system: NIH3T3
- procedure.text: Cytotoxicity against mouse 3T3 cells assessed as cell viability after 3 hrs by spectrophotometric analysis
- Format: cell-based
- stated.conditions: nih3t3, 3 h
measure.name: LD10 (mM)

CCOP(=O)(OCC)C(NCCCCCC[P+](c1ccccc1)(c1ccccc1)c1ccccc1)C(C)C.[Br-] (racemic) | 0.2
CCOP(=O)(OCC)C(NCCCCCC[P+](c1ccccc1)(c1ccccc1)c1ccccc1)C(C)(C)C.[Br-] (racemic) | 0.2
CCOP(=O)(OCC)C(C)(C)NCCCCCC[P+](c1ccccc1)(c1ccccc1)c1ccccc1.[Br-] | 0.2
